# assay.method.text: collision cross section (TIMS, N2 drift gas) of the primary ion; higher = larger gas-phase ion size
# cond: ionization mode: ESI+; ion species: [M+H]+
reported.property: collision cross section
Answer format reminder: number followed by unit.

Asked: Item under review: Cc1ccc(N)cc1Cl [3-Chloro-4-methylaniline] . Reported collision cross section?
Given back: 148.73 Å²

Asked: Which collision cross section is listed for O=C(O)CCCCCCCCC(=O)O [Sebacic acid] ?
Given back: 176.16 Å²

Asked: collision cross section lookup needed for C#C[C@]1(O)C=C[C@H]2[C@@H]3CCC4=CC(=O)CC[C@@H]4[C@H]3CC[C@@]21CC [Gestoden] , thanks.
Given back: 181.55 Å²

Asked: Please report the recorded collision cross section for NC(=O)Nc1ccc(Cl)c(Cl)c1 [3,4-Dichlorophenylurea] .
Given back: 146.21 Å²

Asked: Record request: collision cross section value, item CCNc1nc(Cl)nc(NC(C)(C)C)n1 [Terbuthylazine]
Given back: 153.3 Å²

Asked: Dear colleague, I am looking for the recorded collision cross section of the following compound: C[C@@H]1NC(C)(C)CO[C@@]1(O)c1cccc(Cl)c1 [(S,S)-Hydroxybupropion]
Given back: 159.75 Å²

Asked: Returns the measured collision cross section for the input compound. Input: COP(=O)(OC)OC [Trimethylphosphate]
Given back: 116.51 Å²

Asked: Would you kindly share the measured collision cross section for COc1ccc(C(=O)c2ccccc2)c(O)c1 [Benzophenone-3] ?
Given back: 148.22 Å²

Asked: Need collision cross section of CC(C)(C(=O)O)c1ccc(C(O)CCCN2CCC(C(O)(c3ccccc3)c3ccccc3)CC2)cc1 (centres undefined) [Fexofenadine] , thanks.
Given back: 223.95 Å²

The reported numbers originate from the supplement of paper PMC12613149.
